Observed Ki, system Muscarinic acetylcholine receptor M4 (Homo sapiens, UniProt P08173).
Result Type: Ki (nM)

Molecule	Data Value
NC(=O)C(c1ccccc1)(c1ccccc1)[C@@H]1CCN(CCc2ccc3c(c2)CCO3)C1 [Enablex]	8.6
NC1=COC=C(CN2CCC(NC(=O)[C@](O)(c3ccccc3)[C@@H]3CCC(F)(F)C3)CC2)N1 [Compound A]	15

---

- Tgt: Muscarinic acetylcholine receptor M3 (Rattus norvegicus, UniProt P08483)
- Sequence (P08483 whole entry): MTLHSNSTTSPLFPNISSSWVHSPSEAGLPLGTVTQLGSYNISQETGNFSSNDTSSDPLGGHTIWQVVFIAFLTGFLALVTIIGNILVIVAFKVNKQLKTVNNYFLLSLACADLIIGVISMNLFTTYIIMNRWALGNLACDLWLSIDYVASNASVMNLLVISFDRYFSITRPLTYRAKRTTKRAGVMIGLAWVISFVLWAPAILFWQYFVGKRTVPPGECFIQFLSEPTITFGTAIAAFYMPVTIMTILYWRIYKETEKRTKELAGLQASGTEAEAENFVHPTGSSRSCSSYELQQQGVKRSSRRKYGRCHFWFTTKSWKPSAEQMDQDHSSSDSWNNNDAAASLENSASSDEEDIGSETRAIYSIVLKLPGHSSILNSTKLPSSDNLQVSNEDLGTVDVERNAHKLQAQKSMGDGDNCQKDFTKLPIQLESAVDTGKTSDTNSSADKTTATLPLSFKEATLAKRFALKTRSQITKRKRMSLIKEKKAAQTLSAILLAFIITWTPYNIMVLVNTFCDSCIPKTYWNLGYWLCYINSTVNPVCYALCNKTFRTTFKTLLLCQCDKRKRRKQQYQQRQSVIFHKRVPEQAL
pKi: −log10 of the molar value.
Result Type: pKi

Compound	Result Type	Data Value
NC1=COC=C(CN2CCC(NC(=O)[C@](O)(c3ccccc3)[C@@H]3CCC(F)(F)C3)CC2)N1 [Compound A]	pKi	8.59
